Test system: MS2 coat protein
Test: apparent KD of MS2 coat protein; designed switch direction (-1 OFF switch, 1 ON switch): 1; higher = weaker reporter binding
Conditions: input ligand: FMN 200 uM

| SEQUENCE_CHAIN | apparent KD of MS2 coat protein [nM] |
| --- | --- |
| GGUCCAUCAUGAGGAUAUGGCACCUUAUUGGUGCCAGAAGGCAUGUAAAUUAUAAUAAAUACAUGAGGAUCACCCAUGUGGACC [Eli NG1ss - 98] (Eterna round: R96, puzzle: Same State NG 1) | 1230 |
| AAAGGAUGAUGUUACAUGAGGAUCACCCAUGUAGUGAUAACUAAGGAUAUGUGUUAAACCAGUUAAUAGAAGGUAGGAUCAUUA [AK SSNG3-V2-6] (Eterna round: R96, puzzle: Same State NG 3) | 43.8 |
| GCCAUCCAAUGAGGAUAUGGCACCGUUUCGGUGCCAGAAGGCAUGUCAAUUGACAUGAGGAUCACCCAUGUAUUAUGGAUGGCA [JL Fiskers NG1ss - 33 mod 2] (Eterna round: R96, puzzle: Same State NG 1) | 101 |
| UGGCUCAGACGAGGAUAUAUGUCUCGAGCUUCGGCUCGAGACAUGAGGAUCACCCAUGUAAUAACAUAGAAGGUGUCUGAGCCU [SSNG2/1-C3] (Eterna round: R96, puzzle: Same State NG 2) | 42.9 |
| GGAUGAUUGACAGGAUAUCAUUUGUAAAUUCGAUGAGAAGGGUCGAUUACUUACACGACGUGUUACAUGAGGAUCACCCAUGUU [SameState NG1 #5] (Eterna round: R96, puzzle: Same State NG 1) | 53.7 |
